Data provenance: ChEMBL document CHEMBL4184139

Documented Retention time across a set of compounds
- experimental protocol: Binding affinity to Fe3+ assessed as change in retention time for compound-Fe3+ complex by RP-HPLC analysis relative to free ligand
measure: Retention time (min)

INSERT INTO assay_data (compound, reading) VALUES
  ('CC(=O)N(O)CCCCCNC(=O)CCC(=O)N(O)CCCCCNC(=O)CCC(=O)N(O)CCCCCNC(=O)C12CC3(C)CC(C)(CC(C)(C3)C1)C2', 1.85),
  ('CC(=O)N(O)CCCCCNC(=O)CCC(=O)N(O)CCCCCNC(=O)CCC(=O)N(O)CCCCCNC(=O)CC12CC3CC(CC(Br)(C3)C1)C2', 1.09),
  ('CC(=O)N(O)CCCCCNC(=O)CCC(=O)N(O)CCCCCNC(=O)CCC(=O)N(O)CCCCCNC(=O)CC12CC3CC(C)(CC(C)(C3)C1)C2', 1.54),
  ('CC(=O)N(O)CCCCCNC(=O)CCC(=O)N(O)CCCCCNC(=O)CCC(=O)N(O)CCCCCNC(=O)[C@H]1C[C@H]2CC[C@H]1C2 (relative stereo)', 0.08);
